# testSystem: T1, MCL-1 (mouse, residues 152-308) (mouse)
# T1 construct: remnant of thrombin cleavage at the N-terminus of MCL-1; MCL-1, mouse, residues 152-308, UniProt P97287; source: E. coli C41 pLysS, purified (Ni2+ agarose, thrombin cleavage, ion exchange, Superdex G75 gel filtration); not shown: His6, N-terminal, cleaved
# T1 chain: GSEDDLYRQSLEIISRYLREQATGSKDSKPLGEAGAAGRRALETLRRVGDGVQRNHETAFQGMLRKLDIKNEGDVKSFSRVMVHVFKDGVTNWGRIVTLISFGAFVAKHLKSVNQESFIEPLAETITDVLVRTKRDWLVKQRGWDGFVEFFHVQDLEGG
# assay: stopped-flow fluorescence kinetics + other: fluorescence dissociation kinetics with competitor; Kd calculated as the ratio koff/kon of the kinetic rate constants; 25 °C; 50 mM sodium phosphate, 0.05% (v/v) Tween 20, pH 7.0
# conditionsUsed: both partners purified
Where no end group is shown, it is not given here. The star is where a group is joined. TAMRA = 5-carboxytetramethylrhodamine, CN(C)c1ccc2c(-c3ccc(C(=O)*)cc3C(=O)[O-])c3ccc(=[N+](C)C)cc-3oc2c1
log10 of Kd overview
quantity: log10 of Kd (log10 of the value in nM)

>  <binder>
{TAMRA}-SESQEAIIHNIARHLAQIGDEMDHNIQPTLVRQLA (peptide, UniProt P70444 76-110, looked up, BID, mouse, residues 76-110, UniProt P70444; source: synthetic peptide (Biomatik)) [BID E81A peptide, TAMRA-labelled]

>  <value>
-0.26

$$$$
>  <binder>
{TAMRA}-SESQEEIIHNIARHLAQIGDEADHNIQPTLVRQLA (peptide, UniProt P70444 76-110, looked up, BID, mouse, residues 76-110, UniProt P70444; source: synthetic peptide (Biomatik)) [BID M97A peptide, TAMRA-labelled]

>  <value>
0.58

$$$$
>  <binder>
{TAMRA}-SESQEEIIHNIARHLAQIGDAMDHNIQPTLVRQLA (peptide, UniProt P70444 76-110, looked up, BID, mouse, residues 76-110, UniProt P70444; source: synthetic peptide (Biomatik)) [BID E96A peptide, TAMRA-labelled]

>  <value>
-0.42

$$$$
>  <binder>
{TAMRA}-SESQEEIAHNIARHLAQIGDEMDHNIQPTLVRQLA (peptide, UniProt P70444 76-110, looked up, BID, mouse, residues 76-110, UniProt P70444; source: synthetic peptide (Biomatik)) [BID I83A peptide, TAMRA-labelled]

>  <value>
0.23

$$$$
>  <binder>
{TAMRA}-SESQEEIIHNAARHLAQIGDEMDHNIQPTLVRQLA (peptide, UniProt P70444 76-110, looked up, BID, mouse, residues 76-110, UniProt P70444; source: synthetic peptide (Biomatik)) [BID I86A peptide, TAMRA-labelled]

>  <value>
1.54

$$$$
>  <binder>
{TAMRA}-SESQEEIIHNIARHLAQIGDGMDHNIQPTLVRQLA (peptide, UniProt P70444 76-110, looked up, BID, mouse, residues 76-110, UniProt P70444; source: synthetic peptide (Biomatik)) [BID E96G peptide, TAMRA-labelled]

>  <value>
-0.05

$$$$
